# credit: patent US20170173132A1

I'd be grateful if you could share measured peptide exchange yield for these entries.
Biological target: T1, HLA-A*02:01 (peptide-receptive MHC class I molecule, heavy chain with β2m light chain) (human)
T1 construct: The UV-sensitive placeholder peptide is cleaved on irradiation and exchanged for the tested peptide
Experiment: UV-ligand exchange, anti-β2m ELISA; grade of peptide exchange yield (≥10% = +; ≥20% = ++; ≥50 = +++; ≥75% = ++++)

Request: For the binder FSFPVSVGV [peptide FSFPVSVGV] , what peptide exchange yield is on record?
Result: 50 to 75%

Request: For the binder FLDEEVKLI [peptide FLDEEVKLI] , what peptide exchange yield is on record?
Result: 50 to 75%

Request: For the binder TIASSIEKA [peptide TIASSIEKA] , what peptide exchange yield is on record?
Result: 20 to 50%

Request: For the binder SLFSVPFFL [peptide SLFSVPFFL] , what peptide exchange yield is on record?
Result: ≥ 75%

Request: For the binder ALTALQNYL [peptide ALTALQNYL] , what peptide exchange yield is on record?
Result: 50 to 75%

Request: For the binder SMMGLLTNL [peptide SMMGLLTNL] , what peptide exchange yield is on record?
Result: ≥ 75%

Request: For the binder SLVEGEAVHLA [peptide SLVEGEAVHLA] , what peptide exchange yield is on record?
Result: 20 to 50%

Request: For the binder TLLGLAVNV [peptide TLLGLAVNV] , what peptide exchange yield is on record?
Result: ≥ 75%

Request: For the binder FLVEHVLTL [peptide FLVEHVLTL] , what peptide exchange yield is on record?
Result: ≥ 75%

Request: For the binder GLHSLPPEV [peptide GLHSLPPEV] , what peptide exchange yield is on record?
Result: 50 to 75%

Request: For the binder GLSYIYNTV [peptide GLSYIYNTV] , what peptide exchange yield is on record?
Result: 20 to 50%

Request: For the binder ALAGSSPQV [peptide ALAGSSPQV] , what peptide exchange yield is on record?
Result: 50 to 75%

Request: For the binder SLLSEIQAL [peptide SLLSEIQAL] , what peptide exchange yield is on record?
Result: ≥ 75%

Request: For the binder GLLGFQAEA [peptide GLLGFQAEA] , what peptide exchange yield is on record?
Result: ≥ 75%

Request: For the binder KQLELELEV [peptide KQLELELEV] , what peptide exchange yield is on record?
Result: 50 to 75%

Request: For the binder FMSKLVPAI [peptide FMSKLVPAI] , what peptide exchange yield is on record?
Result: 50 to 75%
